Attribution: paper PMC4471902

# subject.of.test: GluN1(V656A)/GluN2B receptors (Rattus norvegicus, UniProt P35439+Q00960, V656A)
# experiment: Whole-cell patch-clamp of GluN1(V656A)/GluN2B receptor responses in HEK293 cells
# protocol.conditions: fit to the Boltzmann equation; read-out: Kd(0 mV)
test.readout: Kd (µM)
Answers are plain numbers, in µM.

### Prompt May I ask what Kd has been recorded for CC(=O)C1CCC2C3CC[C@@H]4C[C@H](OC(=O)C[N+](C)(C)C)CC[C@]4(C)C3CC[C@]12C (stereo partly shown) ?
### Response 193

----------
# subject.of.test: GluN1-4a(F484A)/eGFP-GluN3A receptor (Rattus norvegicus, UniProt P35439+Q9R1M7, F484A)
# Construct: eGFP
# Sequence (Q9R1M7 24-1135, other chains not shown): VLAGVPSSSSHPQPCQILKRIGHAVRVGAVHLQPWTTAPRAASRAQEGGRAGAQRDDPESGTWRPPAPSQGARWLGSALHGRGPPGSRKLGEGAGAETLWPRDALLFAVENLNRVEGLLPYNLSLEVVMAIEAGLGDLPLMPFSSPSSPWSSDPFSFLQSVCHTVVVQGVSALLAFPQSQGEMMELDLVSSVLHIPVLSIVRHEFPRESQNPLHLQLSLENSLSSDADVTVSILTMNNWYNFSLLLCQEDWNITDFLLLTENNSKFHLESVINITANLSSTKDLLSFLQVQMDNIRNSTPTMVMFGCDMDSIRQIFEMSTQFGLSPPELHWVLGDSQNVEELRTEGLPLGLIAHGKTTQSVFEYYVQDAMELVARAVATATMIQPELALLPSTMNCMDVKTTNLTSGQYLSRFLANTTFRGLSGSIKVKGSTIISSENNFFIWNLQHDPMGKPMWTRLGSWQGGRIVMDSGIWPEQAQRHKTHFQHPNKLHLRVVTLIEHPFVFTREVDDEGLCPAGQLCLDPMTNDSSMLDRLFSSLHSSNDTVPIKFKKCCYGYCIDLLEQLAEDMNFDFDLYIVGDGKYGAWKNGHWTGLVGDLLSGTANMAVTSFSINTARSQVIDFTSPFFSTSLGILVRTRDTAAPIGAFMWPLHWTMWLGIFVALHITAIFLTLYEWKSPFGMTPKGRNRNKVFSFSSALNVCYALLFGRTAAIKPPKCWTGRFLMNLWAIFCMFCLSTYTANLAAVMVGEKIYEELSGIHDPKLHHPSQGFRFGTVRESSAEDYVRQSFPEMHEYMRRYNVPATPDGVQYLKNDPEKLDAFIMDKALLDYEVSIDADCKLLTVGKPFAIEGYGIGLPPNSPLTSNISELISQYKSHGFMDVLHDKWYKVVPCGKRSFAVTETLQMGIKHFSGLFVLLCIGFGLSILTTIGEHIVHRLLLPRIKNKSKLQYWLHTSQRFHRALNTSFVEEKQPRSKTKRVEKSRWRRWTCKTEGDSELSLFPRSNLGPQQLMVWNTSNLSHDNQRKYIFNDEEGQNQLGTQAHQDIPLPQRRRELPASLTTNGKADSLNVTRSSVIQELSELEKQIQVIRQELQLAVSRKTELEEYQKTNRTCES
# experiment: Whole-cell patch-clamp of glycine-activated GluN1-4a(F484A)/eGFP-GluN3A receptor responses in HEK293 cells
# protocol.conditions: glycine-activated, PA-S 50 µM
Where a name gives a salt, the structure may show the parent alone.
test.readout: pIC50
Numbers only, as −log10 of the molar value.

### Prompt Checklist item: pIC50 tested on GluN1-4a(F484A)/eGFP-GluN3A receptor (Rattus norvegicus, UniProt P35439+Q9R1M7, F484A), entry CC(=O)[C@H]1CC[C@H]2[C@@H]3CC[C@@H]4C[C@H](OS(=O)(=O)O)CC[C@]4(C)[C@H]3CC[C@]12C [PA-S, 20-oxo-5β-pregnan-3α-yl sulfate] , value?
### Response 4.57

----------
# subject.of.test: GluN1(T648A)/GluN2B receptors (Rattus norvegicus, UniProt P35439+Q00960, T648A)
# experiment: Whole-cell patch-clamp of GluN1(T648A)/GluN2B receptor responses in HEK293 cells
# protocol.conditions: PA-A 20 μM, fit to the Boltzmann equation; read-out: Kd(0 mV)
test.readout: pKd
Give bare numbers, as −log10 of the molar value.

### Prompt May I ask what pKd has been recorded for CC(=O)C1CCC2C3CC[C@@H]4C[C@H](OC(=O)C[N+](C)(C)C)CC[C@]4(C)C3CC[C@]12C (stereo partly shown) [PA-A] ?
### Response 3.47

----------
# subject.of.test: GluN1ΔC/GluN2BΔC (Rattus norvegicus, UniProt P35439+Q00960)
# experiment: Whole-cell patch-clamp of C-terminal truncated NMDARs in HEK293 cells
Structures can show the parent of a compound that is named as a salt.
test.readout: IC50 (µM)
Numbers only, in µM.

### Prompt Checklist item: IC50 tested on GluN1ΔC/GluN2BΔC (Rattus norvegicus, UniProt P35439+Q00960), entry CC(=O)[C@H]1CC[C@H]2[C@@H]3CC[C@@H]4C[C@H](OS(=O)(=O)O)CC[C@]4(C)[C@H]3CC[C@]12C [PA-S, 20-oxo-5β-pregnan-3α-yl sulfate] , value?
### Response 34

----------
# subject.of.test: GluN1(A649T)/GluN2B receptors (Rattus norvegicus, UniProt P35439+Q00960, A649T)
# experiment: Whole-cell patch-clamp of GluN1(A649T)/GluN2B receptor responses in HEK293 cells
# protocol.conditions: PA-A 20 μM, fit to the Boltzmann equation; read-out: Kd(0 mV)
test.readout: Kd (µM)
One number for each entry, in µM.

### Prompt May I ask what Kd has been recorded for CC(=O)C1CCC2C3CC[C@@H]4C[C@H](OC(=O)C[N+](C)(C)C)CC[C@]4(C)C3CC[C@]12C (stereo partly shown) ?
### Response 745
